Molecular target: T1, Bcl-w
T1 chain: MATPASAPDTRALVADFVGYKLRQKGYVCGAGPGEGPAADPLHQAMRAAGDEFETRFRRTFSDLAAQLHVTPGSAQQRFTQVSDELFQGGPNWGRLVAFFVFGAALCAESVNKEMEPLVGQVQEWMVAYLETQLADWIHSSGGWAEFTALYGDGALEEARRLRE
Assay: competition phage ELISA
# pIC50 annotations
pIC50 is defined as minus the log10 of a concentration measured in mol/L.

// worked examples, pIC50 included
{"binder": "QEAIIRNIARHLAQVGDSMDRSIPPG (M13 phage display: FLAG-26mer-GGGT-g3(249-406)) [Bid BH3 D3A, phage-displayed]", "pIC50": 7.47}
{"binder": "QEDIIRNIARHLEQVGDSMDRSIPPG (M13 phage display: FLAG-26mer-GGGT-g3(249-406)) [Bid BH3 A13E, phage-displayed]", "pIC50": 6.60}
{"binder": "QEDIIRNIARHLAQVGDSMDASIPPG (M13 phage display: FLAG-26mer-GGGT-g3(249-406)) [Bid BH3 R21A, phage-displayed]", "pIC50": 7.28}

Shifting focus to the binder that follows.
Let me know recorded pIC50 for QEDIIRNIARHLAQVGDSMDRSIPPG (M13 phage display: FLAG-26mer-GGGT-g3(249-406); also called wtBid) [Bid BH3 wild type, phage-displayed] , thanks.
7.64
